Each entry below carries its reported Diarrhea Score Day 5.
tested on: Chemotherapy-induced Intestinal Injury Model; experiment: Diarrhea in mouse chemotherapy-induced (5FU) intestinal injury model; assay type: in vivo, BALB/c mice; settings: 30 mpk BID oral; 5FU 400 mg/kg IP; score 0-3
Lab note: write the figure by itself, no unit.

Previously resolved entries follow.
O=C(NCCOCCO)c1ccc(-c2ccc(-c3cc4nc(O[C@@H]5CO[C@H]6[C@@H]5OC[C@H]6O)[nH]c4cc3Cl)cc2)cc1 [Compound 31]
0.43
OCCN1CCN(Cc2ccc(-c3ccc(-c4cc5nc(O[C@@H]6CO[C@H]7[C@@H]6OC[C@H]7O)[nH]c5cc4Cl)cc3)cc2)CC1 [Compound 56]
0.38
OCC1(CO)CCN(Cc2ccc(-c3ccc(-c4cc5nc(O[C@@H]6CO[C@H]7[C@@H]6OC[C@H]7O)[nH]c5cc4Cl)cc3)cc2)CC1 [Compound 60]
0.38
OCCOCCNCc1ccc(-c2ccc(-c3cc4nc(O[C@@H]5CO[C@H]6[C@@H]5OC[C@H]6O)[nH]c4cc3Cl)cc2)cc1 [Compound 58]
0.25

Now for a further molecule.
So what does the record say about Diarrhea Score Day 5 for OCC(CO)NCc1ccc(-c2ccc(-c3cc4nc(O[C@@H]5CO[C@H]6[C@@H]5OC[C@H]6O)[nH]c4cc3Cl)cc2)cc1 [Compound 40] ?
0.38

* * *

Catalogue of bioavailability values
assay: Pharmacokinetics (oral bioavailability) in C57BL/6 mice; settings: mouse, in vivo, IV 1 mg/kg, PO 30 mg/kg

OCC1(CO)CCN(Cc2ccc(-c3ccc(-c4cc5nc(O[C@@H]6CO[C@H]7[C@@H]6OC[C@H]7O)[nH]c5cc4Cl)cc3)cc2)CC1
< 15%

Given the compound O=C(NCCOCCO)c1ccc(-c2ccc(-c3cc4nc(O[C@@H]5CO[C@H]6[C@@H]5OC[C@H]6O)[nH]c4cc3Cl)cc2)cc1 , what is its reported bioavailability?
< 10%

Recorded bioavailability for OCC1CCN(Cc2ccc(-c3ccc(-c4cc5nc(O[C@@H]6CO[C@H]7[C@@H]6OC[C@H]7O)[nH]c5cc4Cl)cc3)cc2)CC1 , please?
< 15%

Data request, read-out bioavailability, for O=P(O)(O)c1ccc(-c2ccc(-c3nc4nc(O[C@@H]5CO[C@H]6[C@@H]5OC[C@H]6O)[nH]c4cc3Cl)cc2)cc1
< 1%

Any idea what bioavailability was measured for CN1CCN(Cc2ccc(-c3ccc(-c4cc5nc(O[C@@H]6CO[C@H]7[C@@H]6OC[C@H]7O)[nH]c5cc4Cl)cc3)cc2)CC1 ?
< 10%

Which bioavailability is reported for this compound? O=C(NC[C@H](O)[C@@H](O)[C@H](O)[C@H](O)CO)c1ccc(-c2ccc(-c3nc4nc(O[C@@H]5CO[C@H]6[C@@H]5OC[C@H]6O)[nH]c4cc3Cl)cc2)cc1
< 1%

* * *

assay: in vitro; details: human, Caco-2, pH 7.4
readout: Papp B→A at 2 h, 2 μM (×10⁻⁶ cm/s)

OC[C@@H](O)[C@@H](O)[C@H](O)[C@@H](O)CNCc1ccc(-c2ccc(-c3nc4nc(O[C@@H]5CO[C@H]6[C@@H]5OC[C@H]6O)[nH]c4cc3Cl)cc2)cc1
0.71
C[C@H]1O[C@@H](O[C@H]2[C@@H](O)C[C@H](O[C@H]3[C@@H](O)C[C@H](O[C@H]4CC[C@@]5(C)[C@H](CC[C@@H]6[C@@H]5C[C@@H](O)[C@]5(C)[C@@H](C7=CC(=O)OC7)CC[C@]65O)C4)O[C@@H]3C)O[C@@H]2C)C[C@H](O)[C@@H]1O [Digoxin, reference compound]
12.7

[1] O=C(NC[C@H](O)[C@@H](O)[C@H](O)[C@H](O)CO)c1ccc(-c2ccc(-c3nc4nc(O[C@@H]5CO[C@H]6[C@@H]5OC[C@H]6O)[nH]c4cc3Cl)cc2)cc1
[2] O=C(NCCOCCO)c1ccc(-c2ccc(-c3cc4nc(O[C@@H]5CO[C@H]6[C@@H]5OC[C@H]6O)[nH]c4cc3Cl)cc2)cc1
Two entries are listed, 1 and 2 . Which one carries the higher Papp B→A at 2 h, 2 μM? Let me know the label of the one you choose.
2
